biological target: PKR(wt) (Homo sapiens, UniProt P30613); assay: Luminescence Biochemical Assay (Kinase Glo Plus), wild type PKR; conditions: without FBP, read-out: AC50 LUM KGP woFBP AC50 μM gmean
Sequence (P30613 whole entry): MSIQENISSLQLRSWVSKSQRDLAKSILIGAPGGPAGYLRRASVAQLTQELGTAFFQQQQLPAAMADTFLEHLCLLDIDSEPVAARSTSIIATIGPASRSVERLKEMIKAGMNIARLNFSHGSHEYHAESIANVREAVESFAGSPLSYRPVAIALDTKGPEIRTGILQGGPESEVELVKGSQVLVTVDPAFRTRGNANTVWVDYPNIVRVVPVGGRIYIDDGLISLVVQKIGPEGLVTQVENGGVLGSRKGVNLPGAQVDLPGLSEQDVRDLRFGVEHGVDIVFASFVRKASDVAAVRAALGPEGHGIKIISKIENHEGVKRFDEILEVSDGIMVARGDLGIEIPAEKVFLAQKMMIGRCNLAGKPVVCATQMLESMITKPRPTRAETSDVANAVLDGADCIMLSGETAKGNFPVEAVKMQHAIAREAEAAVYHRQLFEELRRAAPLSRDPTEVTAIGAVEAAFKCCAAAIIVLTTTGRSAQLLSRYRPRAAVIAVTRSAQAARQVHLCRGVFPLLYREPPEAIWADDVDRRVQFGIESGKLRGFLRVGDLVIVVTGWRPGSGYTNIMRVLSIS

Smiles Input: N#Cc1ccc(S(=O)(=O)N2CC3=C(CN(C(=O)[C@H](O)c4ccccc4)C3)C2)cc1
AC50: 0.1 to 1 µM
//
Smiles Input: Cc1cc(CNC(=O)N2CC3=C(C2)CN(S(=O)(=O)c2ccccn2)C3)no1
AC50: 1 to 40 µM
//
Smiles Input: CN1CCOc2ccc(S(=O)(=O)N3CC4=C(CN(C(=O)[C@@H]5CCCO5)C4)C3)cc21
AC50: 1 to 40 µM
//
Smiles Input: O=C([C@H](O)c1ccccc1)N1CC2=C(C1)CN(S(=O)(=O)c1ccc(OC(F)F)cc1)C2
AC50: ≤ 0.1 µM
//
Smiles Input: CS(=O)(=O)NCC(=O)N1CC2=C(C1)CN(S(=O)(=O)c1ccc3occc3c1)C2
AC50: 0.1 to 1 µM
//
Smiles Input: O=C(NCc1cccnc1)N1CC2=C(C1)CN(S(=O)(=O)c1ccc3occc3c1)C2
AC50: 0.1 to 1 µM
//
Smiles Input: O=C([C@H](O)c1ccc(F)cc1)N1CC2=C(C1)CN(S(=O)(=O)c1cccnc1)C2
AC50: 0.1 to 1 µM
